molecular target: 5-HT1A receptor; assay: In vitro receptor binding, 5-HT1A
measure name: IC50

# substance smiles, reported result
records = [
    ("O[C@]1(c2ccc3c(c2)OCO3)CC[C@H](N2CCN(Cc3cccs3)CC2)CC1", "0.0191 µM"),
    ("O[C@]1(c2ccc3c(c2)OCO3)CC[C@H](N2CCN(Cc3ccccc3)CC2)CC1", "0.02 µM"),
    ("O[C@]1(c2ccc3c(c2)OCO3)CC[C@H](N2CCN(Cc3ccccc3I)CC2)CC1", "0.0012 µM"),
    ("O[C@]1(c2ccc(C(F)(F)F)cc2)CC[C@H](N2CCN(Cc3ccccc3Cl)CC2)CC1", "0.0258 µM"),
    ("O[C@]1(c2ccc3c(c2)OCO3)CC[C@H](N2CCN(C(c3ccccc3)c3ccccc3)CC2)CC1", "0.0286 µM"),
    ("O[C@]1(c2ccc3c(c2)OCCO3)CC[C@H](N2CCN(Cc3ccccc3)CC2)CC1", "0.0099 µM"),
    ("COc1ccc([C@]2(O)CC[C@@H](N3CCN(Cc4ccccc4)CC3)CC2)cc1", "0.0465 µM"),
    ("O[C@]1(c2ccc3c(c2)OCO3)CC[C@H](N2CCN(Cc3cccc(F)c3F)CC2)CC1", "0.0173 µM"),
    ("O[C@]1(c2ccc3c(c2)OCO3)CC[C@H](N2CCN(Cc3ccccc3F)CC2)CC1", "0.0101 µM"),
    ("Cc1ccccc1CN1CCN([C@H]2CC[C@](O)(c3ccc4c(c3)OCO4)CC2)CC1", "0.0042 µM"),
    ("O[C@]1(c2ccc3c(c2)OCCO3)CC[C@@H](N2CCN(Cc3ccccc3)CC2)CC1", "0.0053 µM"),
    ("O[C@]1(c2ccc(F)cc2)CC[C@H](N2CCC(Cc3ccccc3)CC2)CC1", "0.0598 µM"),
    ("COc1ccc(F)c(CN2CCN([C@H]3CC[C@](O)(c4ccc(F)cc4)CC3)CC2)c1", "0.00345 µM"),
    ("COc1cccc(CC2CCN([C@H]3CC[C@](O)(c4ccc5c(c4)OCCO5)CC3)CC2)c1", "0.0022 µM"),
    ("COc1cccc(CN2CCN([C@H]3CC[C@](O)(c4ccc(F)cc4)CC3)CC2)c1", "0.0106 µM"),
    ("O[C@]1(c2ccc(F)cc2)CC[C@H](N2CCN(Cc3cc(F)ccc3F)CC2)CC1", "0.0347 µM"),
]

====

Entries and their pIC50 values follow.
Molecular target: 5-HT1A receptor
Assay: In vitro receptor binding, 5-HT1A
Description: In vitro IC50 test values for binding to the 5-HT1A receptor were determined for representative compounds of Formula I by the method of S. J. Peroutka, Brain Research 344, 167 (1985); with only minor modifications. Test IC50 values lower than 100 nM are considered to reflect activity at the 5-HT1A receptor.
pIC50: −log10 of the molar value.

# compound, pIC50
records = [
    ("O[C@]1(c2ccc3c(c2)OCO3)CC[C@H](N2CCC(Cc3ccccc3)CC2)CC1 [Example 15]", 8.27),
    ("O[C@]1(c2ccc3c(c2)OCO3)CC[C@H](N2CCN(Cc3ccccc3Cl)CC2)CC1 [Example 27]", 8.73),
    ("O[C@]1(c2ccc3c(c2)OCO3)CC[C@H](N2CCN(Cc3cc(F)ccc3F)CC2)CC1 [Example 29]", 8.59),
    ("COc1cccc(CC2CCN([C@H]3CC[C@](OC)(c4ccc5c(c4)OCCO5)CC3)CC2)c1 [Example 45]", 8.47),
    ("O[C@]1(c2ccc3c(c2)OCO3)CC[C@H](N2CCN(Cc3cccc4c3OCO4)CC2)CC1 [Example 33]", 7.46),
    ("O[C@]1(c2ccc3c(c2)OCO3)CC[C@H](N2CCN(Cc3ccccc3Br)CC2)CC1 [Example 50]", 8.92),
    ("O[C@]1(c2ccc3c(c2)OCO3)CC[C@H](N2CCN(Cc3cc(F)cc(F)c3)CC2)CC1 [Example 31]", 7.68),
    ("O[C@]1(c2ccc(F)cc2)CC[C@H](N2CCC(Cc3cc(F)ccc3F)CC2)CC1 [Example 49]", 7.24),
]
